- Tested on: Mycobacterium tuberculosis
- Assay Comment: Antitubercular activity against Mycobacterium tuberculosis H37Rv ATCC 27294 after 7 days by MABA
- Assay type: functional
- Design: unit not given here
Decide using -logMIC alone. Strictly below 3: TRUE. Equal to or above 3: FALSE.

> print(dat)
                                    compound                 test.target  class
 1  CC(C)(C)OC(=O)CN1CCN(Cc2ccc([N+](=O)[O-])o2)CC1  Mycobacterium tuberculosis   TRUE
 2  CC(C)CC(=O)N1CCN(Cc2ccc([N+](=O)[O-])o2)CC1  Mycobacterium tuberculosis   TRUE
 3       O=[N+]([O-])c1ccc(CN2Cc3ccccc3C2)o1  Mycobacterium tuberculosis   TRUE
 4  COc1ccc2c(c1)CN(Cc1ccc([N+](=O)[O-])o1)CC2  Mycobacterium tuberculosis  FALSE
 5  CNc1ccc(C(=O)N2CCN(Cc3ccc([N+](=O)[O-])o3)CC2)cc1  Mycobacterium tuberculosis  FALSE
 6      CON=C1CCN(Cc2ccc([N+](=O)[O-])o2)CC1  Mycobacterium tuberculosis   TRUE
 7  O=[N+]([O-])c1ccc(CN2CCC(=NOCc3ccc(C(F)(F)F)cc3)CC2)o1  Mycobacterium tuberculosis  FALSE
 8  O=[N+]([O-])c1ccc(CN2CCC(c3ccc(OC(F)(F)F)cc3)CC2)o1  Mycobacterium tuberculosis  FALSE
 9  O=C(C1CCCCC1)N1CCN(Cc2ccc([N+](=O)[O-])o2)CC1  Mycobacterium tuberculosis  FALSE
10  O=[N+]([O-])c1ccc(CN2CCC(=NOCc3ccccc3)CC2)o1  Mycobacterium tuberculosis  FALSE
11  N#Cc1ccc2c(c1)CN(Cc1ccc([N+](=O)[O-])o1)C2  Mycobacterium tuberculosis  FALSE
12  CN(C)C(=O)CN1CCN(Cc2ccc([N+](=O)[O-])o2)CC1  Mycobacterium tuberculosis   TRUE
13  O=C(c1ccccc1)N1CCN(Cc2ccc([N+](=O)[O-])o2)CC1  Mycobacterium tuberculosis   TRUE
14  CCOC(=O)CN1CCN(Cc2ccc([N+](=O)[O-])o2)CC1  Mycobacterium tuberculosis   TRUE
15  CC(C)(C)c1ccc(N2CCC3(CCN(Cc4ccc([N+](=O)[O-])o4)CC3)CC2)cc1  Mycobacterium tuberculosis  FALSE
16   CC(=O)CN1CCN(Cc2ccc([N+](=O)[O-])o2)CC1  Mycobacterium tuberculosis   TRUE
17  COc1ccc(C(=O)N2CCN(Cc3ccc([N+](=O)[O-])o3)CC2)cc1  Mycobacterium tuberculosis  FALSE
18  CCC(C)C(=O)N1CCN(Cc2ccc([N+](=O)[O-])o2)CC1 (stereo not drawn)  Mycobacterium tuberculosis  FALSE
19  CC(C)(C)c1cccc(N2CCC3(CCN(Cc4ccc([N+](=O)[O-])o4)CC3)CC2)c1  Mycobacterium tuberculosis  FALSE
20  O=[N+]([O-])c1ccc(CN2CCC(c3ccc(F)cc3)CC2)o1  Mycobacterium tuberculosis  FALSE
21  COc1ccc(CON=C2CCN(Cc3ccc([N+](=O)[O-])o3)CC2)cc1  Mycobacterium tuberculosis  FALSE
22  O=[N+]([O-])c1ccc(CN2CCC(c3ccc(C(F)(F)F)cc3)CC2)o1  Mycobacterium tuberculosis   TRUE
23            O=[N+]([O-])c1ccc(CN2CCNCC2)o1  Mycobacterium tuberculosis  FALSE
24  N#Cc1ccc2c(c1)CN(Cc1ccc([N+](=O)[O-])o1)CC2  Mycobacterium tuberculosis  FALSE
25  O=[N+]([O-])c1ccc(CN2CCC(c3ccc(Br)cc3)CC2)o1  Mycobacterium tuberculosis  FALSE
26  O=C(CN1CCN(Cc2ccc([N+](=O)[O-])o2)CC1)Oc1ccccc1  Mycobacterium tuberculosis  FALSE
27    CC(=O)N1CCN(Cc2ccc([N+](=O)[O-])o2)CC1  Mycobacterium tuberculosis   TRUE
28    O=[N+]([O-])c1ccc(CN2Cc3ccc(F)cc3C2)o1  Mycobacterium tuberculosis  FALSE
29  O=C(CN1CCN(Cc2ccc([N+](=O)[O-])o2)CC1)Nc1ccccc1  Mycobacterium tuberculosis   TRUE
30  O=[N+]([O-])c1ccc(CN2CCC3(CC2)CCN(S(=O)(=O)c2ccc(Cl)cc2)CC3)o1  Mycobacterium tuberculosis  FALSE
31  COc1ccc(C2CCN(Cc3ccc([N+](=O)[O-])o3)CC2)cc1  Mycobacterium tuberculosis  FALSE
32  O=C(c1ccc(F)cc1)N1CCN(Cc2ccc([N+](=O)[O-])o2)CC1  Mycobacterium tuberculosis   TRUE
33  CC(C)(C)c1ccc(N2CCN(Cc3ccc([N+](=O)[O-])o3)CC2)cc1  Mycobacterium tuberculosis  FALSE
34  O=[N+]([O-])c1ccc(CN2CCc3ccc(Cl)cc3C2)o1  Mycobacterium tuberculosis  FALSE
35  O=[N+]([O-])c1ccc(CN2CCc3ccc(Br)cc3C2)o1  Mycobacterium tuberculosis  FALSE
36  O=[N+]([O-])c1ccc(CON=C2CCN(Cc3ccc([N+](=O)[O-])o3)CC2)cc1  Mycobacterium tuberculosis  FALSE

Value source: ChEMBL document CHEMBL4219156
